TARGET: CD137 expressed on cells (CHO cells expressing CD137; Jurkat cells of the Promega CD137 luciferase reporter assay) (UniProt Q07011)
Sequence (Q07011 24-255 limits assumed): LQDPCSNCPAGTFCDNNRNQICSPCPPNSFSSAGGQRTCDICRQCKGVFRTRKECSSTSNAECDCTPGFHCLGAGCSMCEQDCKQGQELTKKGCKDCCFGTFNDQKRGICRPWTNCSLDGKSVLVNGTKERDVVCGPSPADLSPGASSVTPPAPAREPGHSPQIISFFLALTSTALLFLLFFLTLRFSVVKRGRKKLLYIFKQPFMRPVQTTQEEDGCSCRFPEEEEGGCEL
MEASUREMENT_DESCRIPTION: cell-based or functional assay
MEASURED_ENDPOINT: Fold Induction over Background, CD137 reporter assay, co-culture with PC3 (EphA2)

# BINDER, RESULT
measured = [
    ("heterotandem bicyclic peptide complex BCY8942 (BCY8045: N-terminal acetyl; D-Ala8, Nle12; C-terminal Dap (diaminopropionic acid) bearing the linker; Ci, Cii, Ciii on TATA scaffold; BCY6169: N-terminal [PYA]-[B-Ala]-[Sar10]- (linker on PYA); HArg in the A-[HArg]-D extension; HyP1, dD10, HArg12; Ci, Cii, Ciii on TATA scaffold) peptide 1: AXDCXLVNPLCLHPDWXC peptide 2: ACIEEGQYCFADPYXC", "< 2 fold"),
]

Just for reference, patent US20190307836A1 is where these values come from.
